target: UniProt:P40763; assay: Quantitation of STAT3 degradation in A549 cells by Western blot; format: cell-based; parameters: expressed in transfected cells; host or cells: A549; conditions: read-out: A549 DC50, 24 hours, tested up to 30 μM or 10 μM
Sequence (P40763 whole entry): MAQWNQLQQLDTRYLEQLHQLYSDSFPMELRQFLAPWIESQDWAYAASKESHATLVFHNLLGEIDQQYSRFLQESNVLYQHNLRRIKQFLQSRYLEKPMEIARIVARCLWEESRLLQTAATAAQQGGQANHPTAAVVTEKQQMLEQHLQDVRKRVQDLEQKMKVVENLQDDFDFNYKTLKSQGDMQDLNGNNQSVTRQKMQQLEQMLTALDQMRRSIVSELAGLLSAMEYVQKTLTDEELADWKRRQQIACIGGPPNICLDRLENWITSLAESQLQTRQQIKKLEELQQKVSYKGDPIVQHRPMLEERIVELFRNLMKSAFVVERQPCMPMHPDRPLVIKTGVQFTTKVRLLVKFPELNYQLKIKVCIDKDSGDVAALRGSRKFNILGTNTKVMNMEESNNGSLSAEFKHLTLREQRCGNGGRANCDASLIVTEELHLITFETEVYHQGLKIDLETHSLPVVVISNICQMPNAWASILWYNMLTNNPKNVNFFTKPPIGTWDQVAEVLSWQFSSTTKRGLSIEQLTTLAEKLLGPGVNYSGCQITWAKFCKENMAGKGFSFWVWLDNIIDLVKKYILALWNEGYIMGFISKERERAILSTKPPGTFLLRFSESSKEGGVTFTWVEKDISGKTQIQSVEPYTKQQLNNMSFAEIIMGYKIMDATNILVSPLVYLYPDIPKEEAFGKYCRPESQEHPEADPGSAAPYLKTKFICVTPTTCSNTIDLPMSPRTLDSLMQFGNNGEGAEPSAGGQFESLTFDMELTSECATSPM
recorded_metric: DC50

Answered cases to consult:
compound	recorded_metric	reported_value
C/C(=C\C(=O)N[C@H]1CCc2cccc3c2N(C1=O)[C@H](C(=O)N[C@@H](CCC(N)=O)[C@@H](C)OCc1ccc(CCCCCOCCCc2cccc4c2n(C)c(=O)n4C2CCC(=O)NC2=O)cc1)C3)c1ccc(C(F)(F)P(=O)(OCOC(=O)C(C)(C)C)OCOC(=O)C(C)(C)C)cc1 (stereo partly shown) [Compound I-38]	DC50	> 10 µM
Cc1ncsc1-c1ccc(CNC(=O)[C@@H]2C[C@@H](O)CN2C(=O)[C@@H](NC(=O)CCCCCCc2ccc(CO[C@H](C)[C@H](CCC(N)=O)NC(=O)[C@@H]3Cc4cccc5c4N3C(=O)[C@@H](NC(=O)c3cc4cc(C(=O)P(=O)(O)O)ccc4[nH]3)CC5)cc2)C(C)(C)C)cc1 [Compound I-100]	DC50	< 30 µM
C/C(=C\C(=O)N[C@H]1CCc2cccc3c2N(C1=O)[C@H](C(=O)N[C@@H](CCC(N)=O)[C@@H](C)OCc1ccc(CCCOCCOCCCc2ccc4c(c2)n(C)c(=O)n4C2CCC(=O)NC2=O)cc1)C3)c1ccc(C(F)(F)P(=O)(OCOC(=O)C(C)(C)C)OCOC(=O)C(C)(C)C)cc1 (stereo partly shown) [Compound I-54]	DC50	> 30 µM
C/C(=C\C(=O)N[C@H]1CCc2cccc3c2N(C1=O)[C@H](C(=O)NC(CCC(N)=O)[C@@H](C)OCc1ccc(CCCOCCCCCc2ccc4c(c2)n(C)c(=O)n4C2CCC(=O)NC2=O)cc1)C3)c1ccc(C(F)(F)P(=O)(OCOC(=O)C(C)(C)C)OCOC(=O)C(C)(C)C)cc1 (stereo partly shown) [Compound I-36]	DC50	> 10 µM
C/C(=C\C(=O)N[C@H]1CCc2cccc3c2N(C1=O)[C@H](C(=O)N[C@@H](CCC(N)=O)[C@@H](C)OCc1ccc(CCCCCC(=O)N[C@H](C(=O)N2C[C@H](O)C[C@H]2C(=O)NCc2ccc(-c4scnc4C)cc2)C(C)(C)C)cc1)C3)c1ccc(C(F)(F)P(=O)(OCOC(=O)C(C)(C)C)OCOC(=O)C(C)(C)C)cc1 [Compound I-71]	DC50	< 30 µM
C/C(=C\C(=O)N[C@H]1CCc2cccc3c2N(C1=O)[C@H](C(=O)N[C@@H](CCC(N)=O)[C@@H](C)OCc1ccc(CCCCOCC(=O)N[C@H](C(=O)N2C[C@@H](O)C[C@H]2C(=O)NCc2ccc(-c4scnc4C)cc2)C(C)(C)C)cc1)C3)c1ccc(C(F)(F)P(=O)(OCOC(=O)C(C)(C)C)OCOC(=O)C(C)(C)C)cc1 [Compound I-21]	DC50	> 30 µM

Ask: Entry under review: Cc1ncsc1-c1ccc(C2(NC(=O)[C@@H]3C[C@@H](O)CN3C(=O)[C@@H](NC(=O)CCCCc3ccc(CO[C@H](C)[C@H](CCC(N)=O)NC(=O)[C@@H]4Cc5cccc6c5N4C(=O)[C@@H](NC(=O)c4cc5cc(C(=O)P(=O)(O)O)ccc5[nH]4)CC6)cc3)C(C)(C)C)CC2)cc1 [Compound I-90] . Reported DC50?
Result: < 30 µM
